target.desc: T1, human TROP2-his protein (human, UniProt P09758 27-274)
T1 construct: Biotin-labelled in the ELISAs, unlabelled analyte in Biacore; also called biotin-labeled human TROP2-his protein; biotin human Trop2-his
T1 sequence: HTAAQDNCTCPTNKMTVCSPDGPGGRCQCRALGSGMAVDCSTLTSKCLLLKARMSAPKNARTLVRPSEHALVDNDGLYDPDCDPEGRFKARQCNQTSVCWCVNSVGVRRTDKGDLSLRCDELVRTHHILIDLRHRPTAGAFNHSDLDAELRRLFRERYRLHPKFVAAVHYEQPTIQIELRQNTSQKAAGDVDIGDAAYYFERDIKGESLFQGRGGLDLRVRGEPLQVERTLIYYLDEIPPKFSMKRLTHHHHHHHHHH
experiment: SPR Biacore T200, mAb captured on anti-mouse IgG CM5 chip, TROP2-his analyte
assay.metric: koff (s⁻¹)
Answer format: numeric, s⁻¹ implied, no suffix.

// field: koff; key: mouse antibody C1B3B12D2 (antibody, V domains shown, Mouse monoclonal IgG purified from hybridoma supernatant) VH: QVQLQQSGPELVRPGTSVKMSCKAAGYTFTKFWIGWVKQRPGHGLEWIGNIYPGGAYINYNENFKGKATLTADTFSSTAYMQLNSLTSADSAIYYCAREGSSGYWGQGTTLTVSS VL: DIVMTQSPSSLTVTAGEKVTLSCKCSQSLLNSGTQENYLTWYQQKPGQPPKMLIYWASIREPGVPDRFTGSGSGTDFTLTINNVQAEDLAVYYCQHDYSYPFTFGSGTKLEIK ; value = 6.45e-07
